# assayed_target: T1, Human TNFR2-His (Sino 10417-H08H) (human, UniProt P20333 23-257)
# T1 construct: Bought protein; also called recombinant human TNFR2 protein; not shown: His tag
# T1 sequence (looked up): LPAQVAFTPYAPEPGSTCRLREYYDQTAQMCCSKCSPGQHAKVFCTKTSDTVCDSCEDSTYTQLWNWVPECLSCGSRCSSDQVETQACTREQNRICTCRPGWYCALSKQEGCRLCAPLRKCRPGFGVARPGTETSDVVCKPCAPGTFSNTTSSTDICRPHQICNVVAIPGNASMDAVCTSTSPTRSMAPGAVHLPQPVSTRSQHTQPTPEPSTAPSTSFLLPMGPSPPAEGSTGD
# measurement_notes: ELISA, human TNFR2-His coated; EC50 against 219-WT
Would you kindly list % Relative activity (WT antibody/test antibody) for each of these binders?

Solved cases (3 shown):
219-Hu2 (antibody, V domains shown, also called VH4 + VL5) VH: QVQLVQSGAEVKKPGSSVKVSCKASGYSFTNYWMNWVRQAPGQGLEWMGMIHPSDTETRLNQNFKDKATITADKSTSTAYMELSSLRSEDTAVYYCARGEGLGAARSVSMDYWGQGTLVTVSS VL: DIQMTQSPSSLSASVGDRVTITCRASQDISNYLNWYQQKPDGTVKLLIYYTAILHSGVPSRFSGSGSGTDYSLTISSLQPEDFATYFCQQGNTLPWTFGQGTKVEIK : 95.9%
219-Hu3 (antibody, V domains shown, also called VH5 + VL5) VH: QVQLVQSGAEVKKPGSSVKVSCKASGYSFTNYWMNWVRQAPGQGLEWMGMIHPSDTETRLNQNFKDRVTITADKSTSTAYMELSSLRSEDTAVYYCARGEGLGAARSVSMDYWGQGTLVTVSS VL: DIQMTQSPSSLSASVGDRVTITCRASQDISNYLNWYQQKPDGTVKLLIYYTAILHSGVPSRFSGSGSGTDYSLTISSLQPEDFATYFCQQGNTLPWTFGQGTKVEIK : 84.4%
219-Hu5 (antibody, V domains shown, also called VH7 + VL5) VH: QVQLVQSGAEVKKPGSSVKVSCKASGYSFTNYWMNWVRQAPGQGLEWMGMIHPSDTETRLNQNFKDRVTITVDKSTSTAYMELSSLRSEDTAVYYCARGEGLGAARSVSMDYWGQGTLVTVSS VL: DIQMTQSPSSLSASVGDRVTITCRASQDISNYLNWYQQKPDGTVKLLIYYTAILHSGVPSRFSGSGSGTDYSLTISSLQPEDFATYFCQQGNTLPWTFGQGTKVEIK : 96.5%

// moving on: another record for % Relative activity (WT antibody/test antibody)
Ask | So what's the measured % Relative activity (WT antibody/test antibody) for this one? 219-Hu4 (antibody, V domains shown, also called VH6 + VL5) VH: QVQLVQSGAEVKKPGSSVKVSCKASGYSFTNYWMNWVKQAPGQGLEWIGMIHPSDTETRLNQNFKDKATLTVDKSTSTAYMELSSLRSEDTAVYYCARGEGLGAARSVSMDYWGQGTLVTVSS VL: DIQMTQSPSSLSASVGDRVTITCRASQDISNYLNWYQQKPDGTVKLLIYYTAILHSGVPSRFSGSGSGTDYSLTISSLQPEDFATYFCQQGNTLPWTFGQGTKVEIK
Reply | 99.7%
